PROCEDURE_TEXT: refractive index (Na D-line) (dimensionless)
ASSAY_CONTEXT: 298.15 K; 101.33 kPa; Liquid; Standard Abbe refractometry
PROPERTY_LABEL: refractive index

COMPOUND: C1CCCCC1
refractive index: 1.42403
--
COMPOUND: CCCCCC
refractive index: 1.37287
--
COMPOUND: c1ccsc1
refractive index: 1.52581
--
COMPOUND: CCCCCCCC[n+]1ccn(C)c1.F[B-](F)(F)F [1-methyl-3-octylimidazolium tetrafluoroborate]
refractive index: 1.43329

* * *

ASSAY_CONTEXT: 298.15 K; 101.33 kPa; Liquid; Vibrating tube method
PROPERTY_LABEL: mass density (kg/m3)

Solved entries:
MOLECULE: C1CCCCC1
MEASURE_UNIT: kg/m3
mass density: 773.76

MOLECULE: c1ccsc1
MEASURE_UNIT: kg/m3
mass density: 1058.5

I. CCCCCC
II. CCCCCCCC[n+]1ccn(C)c1.F[B-](F)(F)F [1-methyl-3-octylimidazolium tetrafluoroborate]
Task: Compare I and II by numeric mass density and name the larger one. In your reply, give the label of the chosen option.
Output: II
